system-name: human CRHR2-alpha (Homo sapiens)
method: cAMP functional assay for human CRHR2 (LANCE Ultra cAMP, TR-FRET)
reported-conditions: CHO-K1 cells expressing human CRHR2-alpha, agonist human urocortin2 at EC80, cAMP; read-out: IC50 against CRHR2
measurement-type: IC50

Cc1ncc(Cl)cc1C(=O)N[C@H]1CC[C@H](Cn2c(=O)n(-c3ccc4[nH]nc(C)c4c3)c3ccccc32)CC1: < 300 nM

Write down the reported IC50 of Cc1ncc(Cl)cc1C(=O)N[C@H]1CC[C@H](Cn2c(=O)n(-c3ccc(Br)cc3C#N)c3ccccc32)CC1 , test system: human CRHR2-alpha (Homo sapiens).
< 300 nM

# iterate: Cc1ccc(-n2c(=O)n(C[C@H]3CC[C@H](NC(=O)c4cc(Cl)cnc4C)CC3)c3cccc(C)c32)cn1
< 300 nM

# iterate: Cc1ncc(Cl)cc1C(=O)N[C@H]1CC[C@H](Cn2c(=O)n(-c3ccc(N[C@@H]4CCOC4)nc3)c3ccccc32)CC1
< 300 nM

# iterate: Cc1ncc(Cl)cc1C(=O)N[C@H]1CC[C@H](Cn2c(=O)n(-c3cccc(-c4cncn4C)c3)c3ccccc32)CC1
< 300 nM

====

system-name: UniProtKB Q13324
Sequence (Q13324 1-411): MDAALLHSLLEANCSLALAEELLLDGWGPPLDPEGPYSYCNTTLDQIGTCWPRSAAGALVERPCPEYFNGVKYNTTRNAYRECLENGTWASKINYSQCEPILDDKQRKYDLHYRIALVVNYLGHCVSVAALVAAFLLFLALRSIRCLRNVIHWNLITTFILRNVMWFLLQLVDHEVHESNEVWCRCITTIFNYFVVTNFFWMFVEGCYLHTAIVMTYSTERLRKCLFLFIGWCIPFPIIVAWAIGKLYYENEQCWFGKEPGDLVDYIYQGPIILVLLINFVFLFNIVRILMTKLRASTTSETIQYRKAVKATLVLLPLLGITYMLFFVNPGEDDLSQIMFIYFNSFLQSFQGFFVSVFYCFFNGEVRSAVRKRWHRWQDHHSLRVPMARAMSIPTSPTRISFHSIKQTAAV
method: cAMP functional assay for human CRHR2 (LANCE Ultra cAMP, TR-FRET)
reported-conditions: CHO-K1 cells expressing human CRHR2-alpha, agonist human urocortin2 at EC80, cAMP; read-out: IC50 against CRHR2
pIC50: −log10 of the molar value.
measurement-type: pIC50

Examples from the recorded data:
Cc1ncc(Cl)cc1C(=O)N[C@H]1CC[C@H](Cn2c(=O)n(-c3ccc4cncn4c3)c3ccccc32)CC1 [Example 274]: > 6.52
Cc1ncc(Cl)cc1C(=O)N[C@H]1CC[C@H](Cn2c(=O)n(-c3ccc(-n4ccnn4)cc3)c3ccccc32)CC1 [Example 470]: > 6.52
Cc1ncc(Cl)cc1C(=O)N[C@H]1CC[C@H](Cn2c(=O)n(-c3ccc4ncccc4c3)c3ccccc32)CC1 [Example 344]: > 6.52
CNc1cnc(-n2c(=O)n(C[C@H]3CC[C@H](NC(=O)c4cc(Cl)cnc4C(F)F)CC3)c3ccccc32)cn1 [Example 391]: > 6.52
O=C(N[C@H]1CC[C@H](Cn2c(=O)n(-c3cccc(N4CCCC4=O)n3)c3ccccc32)CC1)c1cc(Cl)cnc1C(F)F [Example 776]: > 6.52
CCn1ncc2cc(-n3c(=O)n(C[C@H]4CC[C@H](NC(=O)c5cc(Cl)cnc5C)CC4)c4ccccc43)cnc21 [Example 250]: > 6.52
Cc1ncc(Cl)cc1C(=O)N[C@H]1CC[C@H](Cn2c(=O)n(-c3cncc(-c4cnco4)c3)c3ccccc32)CC1 [Example 485]: > 6.52
COc1ccc(-n2c(=O)n(C[C@H]3CC[C@H](NC(=O)c4cc(Cl)cnc4C)CC3)c3ccccc32)cn1 [Example 30]: > 6.52

GET /values?readout=pIC50&item= Cc1ccc(-n2c(=O)n(C[C@H]3CC[C@H](NC(=O)c4cc(Cl)cnc4C)CC3)c3ccccc32)c(C#N)c1 [Example 247]
> 6.52

# iterate: Cc1ncc(Cl)cc1C(=O)N[C@H]1CC[C@H](Cn2c(=O)n(-c3ccc(-c4ccn(C)n4)cc3)c3ccccc32)CC1 [Example 447]
> 6.52

====

system-name: human CRHR2-alpha (Homo sapiens)
method: cAMP functional assay for human CRHR2 (LANCE Ultra cAMP, TR-FRET)
reported-conditions: CHO-K1 cells expressing human CRHR2-alpha, agonist human urocortin2 at EC80, cAMP; read-out: IC50 against CRHR2
pIC50: −log10 of the molar value.
The entries below are paired with their reported pIC50.

Examples from the recorded data:
O=C(N[C@H]1CC[C@H](Cn2c(=O)n(-c3ccc(NCC(F)(F)F)nc3)c3ccccc32)CC1)c1cc(Cl)cnc1C(F)F: > 6.52
CCn1nc2ncc(-n3c(=O)n(C[C@H]4CC[C@H](NC(=O)c5cc(Cl)cnc5C)CC4)c4ccccc43)cc2c1C: > 6.52

Now for the molecule whose pIC50 we want.
GET /values?readout=pIC50&item= Cc1cc(-n2c(=O)n(C[C@H]3CC[C@H](NC(=O)c4cc(Cl)cnc4C(F)(F)F)CC3)c3ccccc32)ccn1
> 6.52

====

system-name: CRHR2 (Homo sapiens)
method: CRHR2 antagonistic activity (inhibitory activity against CRHR2)
measurement-type: IC50 (µM)

Cc1ncc(Cl)cc1C(=O)N[C@H]1CC[C@H](Cn2c(=O)n(C3CCCCC3)c3ccccc32)CC1 [reference compound (A), reference compound]: 3.1

a: Cc1ncc(Cl)cc1C(=O)N[C@H]1CC[C@H](Cn2c(=O)n(C)c3ccccc32)CC1 [Example 2.50, reference compound]
b: CCn1c(=O)n(C[C@H]2CC[C@H](NC(=O)c3cc(Cl)cnc3C)CC2)c2ccccc21 [Example 2.46, reference compound]
Lab note: check whether a or b shows the higher recorded IC50. // output: label of the selected item
a

P: COc1ccc(-n2c(=O)n(C[C@H]3CC[C@H](NC(=O)c4cc(Cl)cnc4C)CC3)c3ccccc32)cn1
Q: Cc1ncc(Cl)cc1C(=O)N[C@H]1CC[C@H](Cn2c(=O)n(-c3cnc4[nH]ncc4c3)c3ccccc32)CC1
Lab note: check whether P or Q shows the higher recorded IC50. // output: label of the selected item
Q
